biological target: human CD74, naturally expressed on cells (Raji, Daudi, M4A4, NCI-H747 cells; human tonsil tissue) (human) (UniProt P04233); assay: FACS on Daudi cells, 10 µg/mL; mean of three experiments
Endpoint: Maximal binding (MFI at 10 µg/mL)
Provide the measurement as a number trailed by its unit.

HuMab-CD74-011 (antibody, human IgG1, V domains shown, Human IgG1,kappa antibody produced transiently in HEK-293F cells; also called antibody 011) VH: QVQLVESGGGVVQPGRSLRLSCAASGFTFSSYGMHWVRQAPDKGLEWVAVIWYDGSNKYYADSVKGRFTISRDNSKNTLYLQMNSLRAEDTAVYYCARGGTLVRGAMYGTDVWGQGTTVTVSS VL: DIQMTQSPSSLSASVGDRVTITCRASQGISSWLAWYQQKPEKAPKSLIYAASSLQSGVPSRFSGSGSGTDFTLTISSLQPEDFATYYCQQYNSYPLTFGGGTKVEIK ... 5780 MFI

Alright, here's another binder for you.
Problem: Please give the measured Maximal binding (MFI at 10 µg/mL) for this binder: HuMab-CD74-006-mcMMAF (antibody, IgG1, V domains shown, drug-linker mcMMAF alkylated to the cysteines of the reduced antibody (DAR 3.7-4.1), Antibody-drug conjugate of HuMab-CD74-006 (IgG1,kappa)) VH: QVQLVESGGGVVQPGRSLRLSCAASGFTFSSYAMHWVRQAPGKGLEWVAVISYDGSIKYYADSVKGRFTISRDNSKNTLYLQMNSLRVEDTAVFYCARGREITSQNIVILLDYWGQGTLVTVTS VL: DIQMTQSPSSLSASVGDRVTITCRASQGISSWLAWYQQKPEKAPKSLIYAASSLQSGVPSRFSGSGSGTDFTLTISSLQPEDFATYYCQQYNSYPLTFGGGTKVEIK
Solution: 4050 MFI
